# Experiment notes: growth suppression of beta-catenin knockout HCT116, pilot screen, human colon tumor cells (AID 823);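 further: 0% = wells killed by 20 µM Hyamine and 100% = untreated DMSO cell wells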
# Run parameters: CellTiter-Glo, 60 h, at 10 µM, stronger effect = lower value
Records with an inconclusive call do not appear.
Exam item: assign rule met to entries whose viability is below 90% and rule not met to entries at or above 90%. Note that a value of exactly 90% receives rule not met.

> print(dat)
                                   molecule      category
1  COc1ccc(-c2nnc(NC(=O)c3cc(Cl)ccc3Cl)o2)cc1      rule met
2  COc1ccccc1N1CCN(C(CNC(=O)c2ccco2)c2cccnc2)CC1 (stereo not drawn)      rule met
3   c1ccc(-n2ncc3c2ncn2c(C4CCCCC4)nnc32)cc1  rule not met
4  O=C(NC1CC1)c1ccc(CS(=O)(=O)c2c(Cl)cccc2Cl)o1  rule not met

Task: I'd appreciate it if you could check whether `Cc1cc(C)c(C)c(S(=O)(=O)Nc2ccccc2C(=O)NCCCn2ccnc2)c1C` has viability smaller than 90%.
Output: rule met

Task: Just wondering, is viability of `COC(=O)/C=C(\C)NC(=O)c1cccs1` below 90%?
Output: rule not met

###

# Experiment notes: growth suppression of yeast trafficking mutant, preliminary HTS, modulators of trafficking downstream of Golgi apparatus project, 1536-format plate, OD 615 nm (AID 637)
# Run parameters: yeast transport mutant growth, absorbance 615 nm, 18 h; stronger effect = higher value
I'd be grateful if you could share measured inhibition for these entries.
Give bare numbers, in %.

Examples with their reported inhibition follow.
> print(dat)
                                   compound  assay.result
1  COc1ccccc1CNC(=O)N[C@@H](Cc1ccccc1)C(=O)O          10.5
2  COc1ccc(-n2c(COc3ccccc3)nnc2SCc2ccc(C#N)cc2)cc1         -7.82
3     COc1ccc2cc(C#N)c(SCC(=O)N3CCCC3)nc2c1         -5.08
4           CCSc1nncn1/N=C/c1ccc(OC)c(OC)c1          -7.5
5   CN(C)c1cccc2c(S(=O)(=O)Nc3ccccn3)cccc12          1.43

List reported inhibition for each of these compounds:
1. O=C(Nc1c(-c2ccccc2)nc2ccccn12)c1ccco1
2. CN(C)c1ccc(-c2nn3c(-c4ccc(Cl)cc4Cl)nnc3s2)cc1
3. CCc1cc(=O)oc2cc(OC(C)=O)cc(OC(C)=O)c12
4. NC(=O)COC(=O)c1ccc(S(=O)(=O)N2CCCCCC2)cc1
5. COCCNC(=O)CN1CCN(C(c2ccccc2)c2ccccc2)CC1
6. COCC(=O)N(c1ccc(C(C)C)cc1)C1C=CS(=O)(=O)C1 (stereo unspecified)

Output:
[-4.55, 5.08, -5.5, -7.67, -5.08, 0.83]

###

I'd be grateful if you could share measured growth inhibition for these entries.
# Experiment notes: OD615 S. cerevisiae growth inhibition, permissive medium, pilot counter-assay, permissive growth control for S. cerevisiae lifespan shortening project (AID 705)
# Run parameters: OD615, 24 h, at 10 µM, stronger effect = higher value
Numbers only, in %.

> print(dat)
                               molecule  assay.result
1    CCOc1ccccc1Nc1ncnc2c1cnn2-c1ccccc1         -6.82
2   Cc1cc2cc(CNC(=O)c3ccc(Br)o3)ccc2n1C         -9.25
3        Brc1cc(Br)c2ncnc(N3CCCCC3)c2c1         -2.35
4  CCCc1cc(C(=O)N(C2CCCCC2)C2CCCCC2)no1          4.36
5                 CCSc1nsc(SCC)c1C(N)=O         -3.27

List reported growth inhibition for each of these molecules:
1. CC(=O)C1C(c2ccccc2Cl)NC(=O)NC1(O)C(F)(F)F (centres undefined)
2. Cc1ccc(C2CC(c3ccco3)n3nc(N)nc3N2)cc1 (centres undefined)

Output:
[-3.3, 4.36]

Your task in this section: give growth inhibition for each listed record.
1. O=C(c1cc2ccccn2n1)N1CCCC1
2. O=C(CSc1nc2c(c(=O)n1-c1ccc(Cl)cc1)SCC2)Nc1ccc2c(c1)OCCO2
3. Cc1nn(Cc2ccc(Cl)c(Cl)c2)c(C)c1NC(=O)c1cc(C2CC2)on1
4. CCOC(=O)c1nnn(-c2nonc2N)c1-c1ccccc1
5. CCOC(=O)c1sc(NC(=O)C2CC2)nc1C

Output:
1. -5.76
2. -7.54
3. -10.7
4. -8.1
5. -2.83

// for each molecule below, give its growth inhibition
1. O=C1CN(C(=O)c2ccc(Br)o2)C(c2ccccc2)c2cc(Br)ccc2N1 (centres undefined)
2. Cc1nc2c3c4c(sc3n3c(SCC(=O)NCc5ccco5)nnc3n2n1)COC(C)(C)C4
3. Fc1ccc(Br)cc1C1C=C(c2cccnc2)Nc2ncnn21 (centres undefined)
4. Cc1cc(Nc2ccc(Br)cc2F)n2nc(C)nc2n1
5. CCC(C)N1C(=O)CCC1C(=O)NCc1ccc2c(c1)OCO2 (centres undefined)

Output:
[-9.54, -15.2, 6.35, -19.2, -0.51]

###

For each record, write down the corresponding viability.
# Experiment notes: growth suppression of beta-catenin knockout HCT116, pilot screen, human colon tumor cells (AID 823);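 further: 0% = wells killed by 20 µM Hyamine and 100% = untreated DMSO cell wells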
# Run parameters: CellTiter-Glo, 60 h, at 10 µM, stronger effect = lower value
Inconclusive results are not listed.
Numbers only, in %.

> print(dat)
                                   molecule  assay.result
1  CC(Oc1ccccc1F)C(=O)NCCN1CCCCC1 (configuration not stated)          91.9
2                O=C1C2=C(SCCS2)C(=O)N1CCCO          98.9
3  CC1CN(C(=O)c2cc3ccccc3oc2=O)CC(C)O1 (configuration not stated)          98.4
4                     NCCOc1ccccc1-c1ccccc1          87.2
5  CCC(C(=O)N1CC2(C)CC1CC(C)(C)C2)N1C(=O)c2ccccc2C1=O (configuration not stated)          91.5
6  Cc1ccccc1-c1nnc(SCC(=O)Nc2ccc(Cl)cc2)n1N          94.5

Go through the list and state viability for each entry.
1. CCN(CCNC(=O)CCCn1nc(C)n2c(cc3sccc32)c1=O)c1ccccc1
2. O=C1CCCc2c1[nH]c1c(Br)cccc21
3. COC(=O)CC1SC(=O)NC1=Nc1ccccc1 (configuration not stated)
4. Cc1cc(C)c(NC(=O)C(C)(C)C)c(Cl)c1
5. COc1ccc(C/C(O)=C(\C#N)c2nc3ccccc3[nH]2)cc1OC

Output:
[97.2, 108, 106, 89.8, 90.7]

Form field viability, entry `Cc1ccc(OCCCC(=O)Nc2nncs2)cc1` : 105

###

Would you kindly list Her2 level for each of these compounds?
# Tested on: Receptor tyrosine-protein kinase erbB-2 (Homo sapiens)
# Experiment notes: reducers of endogenous Her2 protein level, primary screen, SKBR3 breast tumor cells, AlphaScreen, ATP viability (AID 461);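 further: lower value means less Her2 protein in the cells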
# Run parameters: 18-24 h, at 10 µM, stronger effect = lower value
Numbers only, in %.

Field: example entries. Status: answers known.
> print(dat)
                                   compound  assay.result
1  COc1cc(S(=O)(=O)N2CCOCC2)ccc1NC(=O)COC(=O)C12CC3CC(CC(C3)C1)C2          73.5
2   c1ccc(-c2nn3c(Cn4nnc5ccccc54)nnc3s2)nc1           114
3  CCN=C1SC(CC(=O)Nc2ccccc2)C(=O)N1CC (stereo not given)          91.5
4               CC(C)CSc1nc2ccccc2n1CC(N)=O            96

Now look at this entry.
Field Her2 level (system: Receptor tyrosine-protein kinase erbB-2 (Homo sapiens)) for entry `C[C@]12C=CC(=O)C=C1CC[C@H]1[C@@H]3C[C@@H](O)[C@](O)(C(=O)CO)[C@@]3(C)C[C@H](O)[C@@]12F` = 110

###

# Experiment notes: reversal of MRP1-mediated doxorubicin resistance, pilot screen, H69AR cells, doxorubicin co-treatment (AID 601)
# Run parameters: H69AR cells + 2 uM doxorubicin, CellTiter-Glo, 72 h; measured here: viability with 2 uM doxorubicin; at 10 µM; stronger effect = lower value
API: label(entry) gives y if the entry's viability is strictly smaller than 90%; on equality or larger values it gives n.

> print(dat)
                               input.smiles  category
1  Cc1nc(Nc2nc(=O)c3ccccc3n2C)nc2c(C)cccc12         n
2              O=C(Nc1cccc2ccccc12)c1cnccn1         y
3     Cc1cccc(OCC(=O)N2CCC(N3CCCCCC3)CC2)c1         n
4  CCCCn1c(CN2CCN(c3cccc(Cl)c3)CC2)nc2c1c(=O)n(C)c(=O)n2C         y
5           CC(C)c1nnc(SCC(=O)NCc2ccco2)n1C         y

Task: Is it true that viability reported for `CCOC(=O)N1CCN(c2cc3nccnc3cc2F)CC1` is less than 90%?
Output: n

Task: Consider the molecule `O=C(CSc1nnc(CNC(=O)c2cccs2)o1)NCCc1ccccc1` . Is its viability strictly less than 90%?
Output: n

Task: Does this molecule meet the criterion viability < 90%? `COC(=O)Nc1ccc(NC(C)=O)cc1`
Output: y
